Tested on: Soy
run.description: Phytotoxicity Test, soy
cond: 2500 ppm spray, ten days
# Phytotoxicity: Soy values compiled below
property.label: Phytotoxicity: Soy

| compound | obs.value |
| --- | --- |
| CCCCCCCCCCCCc1ccc(OC(=O)N(C)SN(C)C(=O)ON=C(C)SC)cc1 | 1 |
| CCC(C)c1cc([N+](=O)[O-])cc([N+](=O)[O-])c1OC(=O)N(C)SN(C)C(=O)ON=C(C)SC (centres unmarked) | 2 |
| CSC(C)=NOC(=O)N(C)SN(C)C(=O)ON=C1CSCCS1 | 1 |
| CSC(C)=NOC(=O)N(C)SN(C)C(=O)Oc1ccc(C(C)(C)C)cc1 | 1 |
| CSC(C)=NOC(=O)N(C)SN(C)C(=O)Oc1ccccc1OC(C)C | 2 |

====

System: two-spotted mite (Tetranychus urticae Koch)
run.description: whole plant or invertebrate
cond: foliar, read-out: Biological Activity in LD50's: Mite
Listed here are compounds together with their documented LC50.

| compound | qualifier | LC50 (µg/mL) |
| --- | --- | --- |
| CSC(C)=NOC(=O)N(C)SN(C)C(=O)Oc1cccc(C(C)C)c1 [drawing 83] | = | 500 |
| CN(SN(C)C(=O)ON=C1SC(C)(C)C(=O)N1C)C(=O)ON=C1CSCCS1 [drawing 88] | = | 6 |
| CSC(C)=NOC(=O)N(C)SN(C)C(=O)Oc1cccc2ccccc12 [drawing 86] | = | 500 |
| CNC(=O)ON=C1SC(C)(C)C(=O)N1C | = | 280 |
| CN(SN(C)C(=O)Oc1cccc2ccccc12)C(=O)Oc1cccc2ccccc12 | > | 500 |
| CSC(C)=NOC(=O)N(C)SN(C)C(=O)Oc1ccc(C(C)(C)C)cc1 [drawing 80] | > | 500 |
| CNC(=O)Oc1ccc(C(C)(C)C)cc1 | > | 500 |
| CN(SN(C)C(=O)Oc1ccc(C(C)(C)C)cc1)C(=O)Oc1ccc(C(C)(C)C)cc1 | > | 500 |
| CC(C)c1cccc(OC(=O)N(C)SN(C)C(=O)Oc2cccc(C(C)C)c2)c1 | > | 500 |

====

Phytotoxicity: Soy for assorted compounds
Tested on: Soy
run.description: Phytotoxicity Test, soy
cond: 2500 ppm spray, ten days
property.label: Phytotoxicity: Soy

| compound | property.label | obs.value |
| --- | --- | --- |
| COC(=O)Nc1ccc(OC(=O)N(C)SN(C)C(=O)ON=C(C)SC)cc1C(C)C [XVI] | Phytotoxicity: Soy | 1 |
| CCOC(=O)C(=NOC(=O)N(C)SN(C)C(=O)ON=C(C)SC)SC [XIII] | Phytotoxicity: Soy | 2 |
| CSC(C)=NOC(=O)N(C)SN(C)C(=O)Oc1ccc(SC)c(C)c1 [XV] | Phytotoxicity: Soy | 1 |
| CSC(C)=NOC(=O)N(C)SN(C)C(=O)ON=C1SCSCS1 [XL] | Phytotoxicity: Soy | 1 |
| CSC(C)=NOC(=O)N(C)SN(C)C(=O)ON=CC(C)(C)SC [Example I] | Phytotoxicity: Soy | 1 |
| C#CCOc1ccccc1OC(=O)N(C)SN(C)C(=O)ON=C(C)SC [XXXIX] | Phytotoxicity: Soy | 2 |
| CSC(C)=NOC(=O)N(C)SN(C)C(=O)Oc1cc(C)c(C)c(C)c1 [XVIII] | Phytotoxicity: Soy | 1 |
| CSC(C)(C)C=NOC(=O)N(C)SN(C)C(=O)Oc1cccc2ccccc12 [Example VI] | Phytotoxicity: Soy | 1 |
| CSC(C)=NOC(=O)N(C)SN(C)C(=O)Oc1cccc2c1CCCC2 [XIV] | Phytotoxicity: Soy | 1 |
| CC(C)c1ccc(OC(=O)N(C)SN(C)C(=O)ON=C2CSCCS2)cc1 [XXV] | Phytotoxicity: Soy | 1 |
| CN(SN(C)C(=O)Oc1cccc2ccccc12)C(=O)ON=C1CSCCS1 [XXII] | Phytotoxicity: Soy | 2 |
| CSC(C)=NOC(=O)N(C)SN(C)C(=O)Oc1ccc([N+](=O)[O-])cc1 [XII] | Phytotoxicity: Soy | 1 |
| CSC(C)=NOC(=O)N(C)SN(C)C(=O)Oc1ccc(C(C)C)cc1 [VIII] | Phytotoxicity: Soy | 1 |
| CN(SN(C)C(=O)Oc1cccc2c1OC(C)(C)C2)C(=O)ON=C1CSCCS1 [XXIV] | Phytotoxicity: Soy | 2 |
| CSC(C)=NOC(=O)N(C)SN(C)C(=O)Oc1ccc(NC=O)c(C)c1 [XXI] | Phytotoxicity: Soy | 1 |
| C=CCc1ccc(OC(=O)N(C)SN(C)C(=O)ON=C(C)SC)c(OC)c1 [XXXIII] | Phytotoxicity: Soy | 1 |
| CSC(C)=NOC(=O)N(C)SN(C)C(=O)Oc1cccc(Oc2ccccc2)c1 [XXXV] | Phytotoxicity: Soy | 1 |
| CSC(C)=NOC(=O)N(C)SN(C)C(=O)ON=C(SC)C(=O)N(C)C [XI] | Phytotoxicity: Soy | 1 |
| CSC(C)=NOC(=O)N(C)SN(C)C(=O)ON=C(C)C(=O)c1ccccc1 [XLI] | Phytotoxicity: Soy | 1 |
| CSC(C)=NOC(=O)N(C)SN(C)C(=O)Oc1cccc(C(C)C)c1 [XXVIII] | Phytotoxicity: Soy | 2 |

====

System: Cotton
run.description: Phytotoxicity Test, cotton
cond: 2500 ppm spray, ten days
compounds and their reported Phytotoxicity: Cotton
property.label: Phytotoxicity: Cotton

| compound | property.label | obs.value |
| --- | --- | --- |
| CSC(C)=NOC(=O)N(C)SN(C)C(=O)ON=C(C)C(=O)c1ccccc1 | Phytotoxicity: Cotton | 1 |
| CSC(C)=NOC(=O)N(C)SN(C)C(=O)Oc1ccc(C(C)(C)C)cc1Cl | Phytotoxicity: Cotton | 1 |
| C#CCOC(=O)N(C)SN(C)C(=O)Oc1cccc2ccccc12 | Phytotoxicity: Cotton | 1 |
| CSC(C)=NOC(=O)N(C)SN(C)C(=O)Oc1ccc(SC)c(C)c1 | Phytotoxicity: Cotton | 1 |
| CSC(C)=NOC(=O)N(C)SN(C)C(=O)Oc1cc(C)c(C)c(C)c1 | Phytotoxicity: Cotton | 1 |
| CSC(C)=NOC(=O)N(C)SN(C)C(=O)ON=C1CSCCS1 | Phytotoxicity: Cotton | 1 |
| CSC(C)=NOC(=O)N(C)SN(C)C(=O)Oc1ccccc1C1OCCO1 | Phytotoxicity: Cotton | 2 |
| CSC(C)=NOC(=O)N(C)SN(C)C(=O)Oc1ccc(C(C)(C)C)cc1 | Phytotoxicity: Cotton | 1 |
| CSC(C)=NOC(=O)N(C)SN(C)C(=O)Oc1ccc(NC=O)c(C)c1 | Phytotoxicity: Cotton | 1 |
| CSC(C)=NOC(=O)N(C)SN(C)C(=O)Oc1cccc(Oc2ccccc2)c1 | Phytotoxicity: Cotton | 1 |
| CSC(C)=NOC(=O)N(C)SN(C)C(=O)Oc1ccc(Oc2ccccc2)cc1 | Phytotoxicity: Cotton | 1 |
| CSC(C)=NOC(=O)N(C)SN(C)C(=O)Oc1ccc([N+](=O)[O-])cc1 | Phytotoxicity: Cotton | 1 |
| CN(SN(C)C(=O)ON=C1SC(C)(C)C(=O)N1C)C(=O)ON=C1CSCCS1 | Phytotoxicity: Cotton | 2 |
| CCOC(=O)C(=NOC(=O)N(C)SN(C)C(=O)ON=C(C)SC)SC | Phytotoxicity: Cotton | 1 |
| CSC(C)=NOC(=O)N(C)SN(C)C(=O)Oc1cccc(C(C)C)c1 | Phytotoxicity: Cotton | 2 |
| C=CCc1ccc(OC(=O)N(C)SN(C)C(=O)ON=C(C)SC)c(OC)c1 | Phytotoxicity: Cotton | 3 |
| CC(C)c1ccc(OC(=O)N(C)SN(C)C(=O)ON=C2CSCCS2)cc1 | Phytotoxicity: Cotton | 3 |
| CSC(C)=NOC(=O)N(C)SN(C)C(=O)Oc1ccc(C(C)C)cc1 | Phytotoxicity: Cotton | 1 |
| CN(SN(C)C(=O)Oc1cccc2ccccc12)C(=O)ON=C1CSCCS1 | Phytotoxicity: Cotton | 1 |
| CSC(C)=NOC(=O)N(C)SN(C)C(=O)ON=C1SCSCS1 | Phytotoxicity: Cotton | 1 |
| CN(SN(C)C(=O)Oc1cccc2c1OC(C)(C)C2)C(=O)ON=C1CSCCS1 | Phytotoxicity: Cotton | 2 |
| CSC(C)=NOC(=O)N(C)SN(C)C(=O)Oc1cccc(N(C)C)c1 | Phytotoxicity: Cotton | 2 |
| CSC(C)=NOC(=O)N(C)SN(C)C(=O)Oc1cccc2ccccc12 | Phytotoxicity: Cotton | 2 |
| CSC(C)=NOC(=O)N(C)SN(C)C(=O)ON=CC(C)(C)SC | Phytotoxicity: Cotton | 2 |
| CSC(C)=NOC(=O)N(C)SN(C)C(=O)Oc1ccc(-c2ccccc2)cc1 | Phytotoxicity: Cotton | 2 |
| CSC(C)=NOC(=O)N(C)SN(C)C(=O)Oc1cccc2c1OC(C)(C)C2 | Phytotoxicity: Cotton | 2 |
| C#CCOC(=O)N(C)SN(C)C(=O)ON=C1SC(C)(C)C(=O)N1C | Phytotoxicity: Cotton | 2 |
| C#CCOC(=O)N(C)SN(C)C(=O)Oc1ccc(C)c(C)c1 | Phytotoxicity: Cotton | 2 |
| CSC(C)=NOC(=O)N(C)SN(C)C(=O)Oc1cccc2c1CCCC2 | Phytotoxicity: Cotton | 1 |
| CSC(C)=NOC(=O)N(C)SN(C)C(=O)ON=C(C)SCCC#N | Phytotoxicity: Cotton | 2 |
| CSC(C)(C)C=NOC(=O)N(C)SN(C)C(=O)Oc1cccc2ccccc12 | Phytotoxicity: Cotton | 1 |
| CSC(C)=NOC(=O)N(C)SN(C)C(=O)Oc1ccccc1OC(C)C | Phytotoxicity: Cotton | 1 |
| C#CCOc1ccccc1OC(=O)N(C)SN(C)C(=O)ON=C(C)SC | Phytotoxicity: Cotton | 2 |
| CCC(C)c1cc([N+](=O)[O-])cc([N+](=O)[O-])c1OC(=O)N(C)SN(C)C(=O)ON=C(C)SC (stereo not drawn) | Phytotoxicity: Cotton | 2 |
| CCCCCCCCCc1ccc(OC(=O)N(C)SN(C)C(=O)ON=C(C)SC)cc1 | Phytotoxicity: Cotton | 1 |
| CSC(C)=NOC(=O)N(C)SN(C)C(=O)ON=C(SC)C(=O)N(C)C | Phytotoxicity: Cotton | 2 |
| CSC(C)=NOC(=O)N(C)SN(C)C(=O)Oc1ccccc1C1SCCS1 | Phytotoxicity: Cotton | 1 |
| COC(=O)Nc1ccc(OC(=O)N(C)SN(C)C(=O)ON=C(C)SC)cc1C(C)C | Phytotoxicity: Cotton | 1 |
| CCCCCCCCCCCCc1ccc(OC(=O)N(C)SN(C)C(=O)ON=C(C)SC)cc1 | Phytotoxicity: Cotton | 2 |
